System: HCC-2998 colon
run_description: NCI tumour cell line growth inhibition, 48 h
Listed here are molecules together with their documented TGI.
Just the number in µM, nothing appended.

O=c1nc2cc(-c3ccccc3)[nH]c2nn1-c1c(Cl)cc(Cl)cc1Cl    32
COc1ccc(C(O)c2cc3c(N)c(C(=O)Nc4cccc(Br)c4)sc3nc2C)cc1 (stereo not given)    15.5
CC(=O)c1cccc(NC2C(N)C(NC(=O)N(C)C)(C(C)O)C(C)(O)C2(O)COC(=O)c2c(C)cccc2O)c1 (stereo not given)    0.00295

Now turn to the next molecule.
Sample "CCNCCNc1cc(-c2ccc(F)cc2)c(C#N)c2nc3ccccc3n12" ; TGI observed: 14.2
